Reported % Protection values for a set of sequences
- Tested on: EDIM rotavirus
- Design: species or system mice
- condition description: mouse, in vivo
// unit must come after the numeric part

[[record]]
primary_sequence = "TDLITNYSPSREDNLQRVFTVASIRSMLVK [compound 11]"
recorded_result = "65%"

[[record]]
primary_sequence = "CAINAPANIQQFEHIVQLRRVLTTA [compound 1]"
recorded_result = "0%"

[[record]]
primary_sequence = "RNFDTIRLSFQLMRPPNMTPAVTAL [Peptide #6]"
recorded_result = "85%"


Qu. Given QEYAIPVGPVFPPGMNWTDLITNYSPSRED [compound 10] , report its % Protection on EDIM rotavirus.
Ans. 0%

Qu. Answer briefly: % Protection recorded on EDIM rotavirus for VLADASETMLANVTSVRQEYAI [compound 9]
Ans. 0%

Qu. Name the recorded % Protection of HATVLTLRIDSAICESVLADASETMLANV [compound 8] , assay system EDIM rotavirus.
Ans. 51%

Qu. Report value: % Protection, system: EDIM rotavirus, sequence: NGQVINTYQARFGTIVARNFDTIRLSFQLM [compound 5]
Ans. 0%

Qu. For EDIM rotavirus, give % Protection of the listed sequence: RLSFQLMRPPNMTP [Peptide #6-14]
Ans. 98%

Qu. Provide % Protection, recorded with EDIM rotavirus, of MTPAVTALFPNAQPFEHHATVGLTLRIDSA [compound 7]
Ans. 0%

Qu. State the measured % Protection (EDIM rotavirus) of FSFPRVINSADGATTWYFNPVILRPNNVEV [compound 3]
Ans. 58%

Qu. Print EDIM rotavirus % Protection for FNPVILRPNNVEVEFLLNGQVINTYQARF [compound 4] .
Ans. 77%

Qu. // fetch % Protection for PDAERFSFPRVINSADGA [compound 2] ; system: EDIM rotavirus
Ans. 70%
